Hello, the source for this data is PubChem BioAssay (NCATS), in case you need it.

Tested on: CP325
Experiment: qHTS profiling for inhibitors of Plasmodium falciparum proliferation (AID 504749); also: nearly all actives have a fitted effect of over 60% in size
Conditions: P. falciparum in erythrocytes, SYBR Green DNA, 72 h; series mostly up to 28.7 µM
Method: NIH National Institute of Allergy and Infectious Diseases [NIAID] NIH Chemical Genomics Center [NCGC] […] Because mature erythrocytes lack DNA, only Plasmodium-derived DNA is detected. NCGC Assay Protocol Summary: The SYBR Green viability assay was adapted from a method described previously (Plouffe et al., 2008). […] The following morning, fluorescence intensity at 485(14) nm excitation and 535(25) nm emission wavelengths was measured on an EnVision (Perkin Elmer) plate reader. […]
Records with an inconclusive call do not appear. The source made the active and inactive calls. Calls follow the shape of the dose curve; as a rule, active = well fitted inhibition curve with a large enough effect; inconclusive = small, poorly fitted or top-dose-only effect; inactive = flat fitted curve, though single readings scatter. Peptide text beside a SMILES is read from it.
Permitted responses: True for active, False for inactive

Query: # outcome recorded in this test, key = CC(Cc1ccc(O)c(O)c1)C(C)Cc1ccc(O)c(O)c1 (configuration not stated)
Reply: False

Query: # outcome recorded in this test, key = `CCOc1ccc(N=Nc2ccc(N)cc2N)cc1`
Reply: False

Query: # outcome recorded in this test, key = Nc1c(Br)cc(Br)cc1CNC1CCC(O)CC1 (configuration not stated)
Reply: False

Query: # outcome recorded in this test, key = `CC1=C(/C=C/C(C)=C/C=C/C(C)=C/CO)C(C)(C)CCC1`
Reply: False

Query: # outcome recorded in this test, key = `Nc1ncnc2c1ncn2[C@@H]1O[C@H](COP(=O)(O)OP(=O)(O)OP(=O)(O)O)[C@@H](O)[C@H]1O`
Reply: False

Query: # outcome recorded in this test, key = `CCCCCCCCCCCCCCCC(=O)OCC(COC(=O)CCCCCCCCCCCCCCC)OC(=O)CCCCCCCCCCCCCCC`
Reply: False

Query: # outcome recorded in this test, key = `O=S(=O)(O)c1ccc2c(N=Nc3ccc(S(=O)(=O)O)c4ccccc34)c(O)c(S(=O)(=O)O)cc2c1`
Reply: False

Query: # outcome recorded in this test, key = `O=C(O)CN(CCN(CC(=O)O)CC(=O)O)CC(=O)O`
Reply: False

Query: # outcome recorded in this test, key = `C[C@H]1C[C@H]2[C@@H]3CCC4=CC(=O)C=C[C@]4(C)[C@@]3(F)[C@@H](O)C[C@]2(C)[C@@]1(O)C(=O)CO`
Reply: False

Query: # outcome recorded in this test, key = `C#C[C@]1(O)CC[C@H]2[C@@H]3CCC4=CCCC[C@@H]4[C@H]3C(=C)C[C@@]21CC`
Reply: False

Query: # outcome recorded in this test, key = `O=C(COc1ccc(Cl)cc1)OCCNC12CC3CC(CC(C3)C1)C2`
Reply: False

Query: # outcome recorded in this test, key = `Cc1cc(C(=O)NNCc2ccccc2)no1`
Reply: False

Query: # outcome recorded in this test, key = `O=C(O)c1cc(O)c2c(c1)[O][Bi][O]2`
Reply: False

Query: # outcome recorded in this test, key = `COc1ccc2c3c1O[C@H]1C[C@@H](O)C=C[C@@]31CCN(C)C2`
Reply: False

Query: # outcome recorded in this test, key = Cc1ccccc1OCC(O)CNCCOc1ccc(C(N)=O)cc1 (configuration not stated)
Reply: False

Query: # outcome recorded in this test, key = `CN(C)CCCN1c2ccccc2C(C)(C)c2ccccc21`
Reply: False

Query: # outcome recorded in this test, key = `Cc1ccccc1`
Reply: False

Query: # outcome recorded in this test, key = `O=C(O)CCC(=O)C(=O)O`
Reply: False

Query: # outcome recorded in this test, key = CC1(C)C(C=C(Cl)Cl)C1C(=O)OCc1cccc(Oc2ccccc2)c1 (configuration not stated)
Reply: False

Query: # outcome recorded in this test, key = `CCCCC(=O)O[C@]1(C(=O)CO)[C@H](C)C[C@H]2[C@@H]3CCC4=CC(=O)C=C[C@]4(C)[C@@]3(F)[C@@H](O)C[C@@]21C`
Reply: False

Query: # outcome recorded in this test, key = `COC(F)(F)C(Cl)Cl`
Reply: False

Query: # outcome recorded in this test, key = `O=CCCCC=O`
Reply: False

Query: # outcome recorded in this test, key = `C[C@]12O[C@H](C[C@]1(O)CO)n1c3ccccc3c3c4c(c5c6ccccc6n2c5c31)CNC4=O`
Reply: True

Query: # outcome recorded in this test, key = `Cc1c(C)c2c(c(C)c1O)CC[C@@](C)(CCC[C@H](C)CCC[C@H](C)CCCC(C)C)O2`
Reply: False

Query: # outcome recorded in this test, key = CC1=CCC(C(C)(C)O)CC1 (configuration not stated)
Reply: False

Query: # outcome recorded in this test, key = `CC(C)N=c1cc2n(-c3ccc(Cl)cc3)c3ccccc3nc-2cc1Nc1ccc(Cl)cc1`
Reply: False

Query: # outcome recorded in this test, key = COC(C(=O)C(O)C(C)O)C1Cc2cc3cc(OC4CC(OC5CC(O)C(O)C(C)O5)C(O)C(C)O4)c(C)c(O)c3c(O)c2C(=O)C1OC1CC(OC2CC(OC3CC(C)(O)C(O)C(C)O3)C(O)C(C)O2)C(O)C(C)O1 (configuration not stated)
Reply: True

Query: # outcome recorded in this test, key = `CCCCCCCC(=O)O`
Reply: False

Query: # outcome recorded in this test, key = CCCC(=O)Nc1ncnc2c1ncn2C1OC2COP(=O)(O)OC2C1OC(=O)CCC (configuration not stated)
Reply: False

Query: # outcome recorded in this test, key = CCC(=O)NCCC1CCc2ccc3c(c21)CCO3 (configuration not stated)
Reply: False

Query: # outcome recorded in this test, key = C[C@@H]1CCC2[C@@H](C)[C@@H](O)O[C@@H]3O[C@@]4(C)CC[C@@H]1[C@@]23OO4 (some centres not stated)
Reply: True

Query: # outcome recorded in this test, key = `COCC(=O)Nc1cc(Sc2ccccc2)ccc1N=C(NC(=O)OC)NC(=O)OC`
Reply: False

Query: # outcome recorded in this test, key = `COC(=O)[C@H]1[C@H]2C[C@@H]3c4[nH]c5ccccc5c4CCN3C[C@H]2C[C@@H](OC(=O)c2cc(OC)c(OC)c(OC)c2)[C@@H]1OC`
Reply: True

Query: # outcome recorded in this test, key = `Cc1cn([C@H]2C[C@H](O)[C@@H](CO)O2)c(=O)[nH]c1=O`
Reply: False

Query: # outcome recorded in this test, key = `C=C1C(=CC=C2CCC[C@@]3(C)[C@@H]2CC[C@H]3[C@H](C)CCCC(C)C)C[C@@H](O)C[C@@H]1O`
Reply: False

Query: # outcome recorded in this test, key = `O=S(=O)(O)c1cc(O)c2c(N=Nc3ccc(Nc4ccccc4)c4c(S(=O)(=O)O)cccc34)cc(S(=O)(=O)O)cc2c1`
Reply: False

Query: # outcome recorded in this test, key = `C#CCOc1ccc2c(C)cc(=O)oc2c1`
Reply: False

Query: # outcome recorded in this test, key = `CCOC(=O)C1=C(C)NC(C)=C(C(=O)OCC)C1c1ccccc1C=CC(=O)OC(C)(C)C`
Reply: True

Query: # outcome recorded in this test, key = `O=C1C(=O)c2ncccc2-c2cccnc21`
Reply: True

Query: # outcome recorded in this test, key = CC(=O)N[C@@H](CC(=O)O)C(=O)N[C@@H](CCC(=O)O)C(=O)O (Ac-Asp-Glu-OH)
Reply: False

Query: # outcome recorded in this test, key = `C=CCSSSCC=C`
Reply: False

Query: # outcome recorded in this test, key = `O=C(O)c1cc(=O)c2c3nc4ccccc4oc-3cc(=O)c2[nH]1`
Reply: False

---

Test system: TAB165
Test: qHTS profiling for inhibitors of Plasmodium falciparum proliferation (AID 504749); also: nearly all actives have a fitted effect of over 60% in size
Details: P. falciparum in erythrocytes, SYBR Green DNA, 72 h; series mostly up to 28.7 µM
Description: NIH National Institute of Allergy and Infectious Diseases [NIAID] NIH Chemical Genomics Center [NCGC] […] Because mature erythrocytes lack DNA, only Plasmodium-derived DNA is detected. NCGC Assay Protocol Summary: The SYBR Green viability assay was adapted from a method described previously (Plouffe et al., 2008). […] The following morning, fluorescence intensity at 485(14) nm excitation and 535(25) nm emission wavelengths was measured on an EnVision (Perkin Elmer) plate reader. […]
Inconclusive results are not listed. Activity calls are given as the source filed them. Calls follow the shape of the dose curve; as a rule, active = well fitted inhibition curve with a large enough effect; inconclusive = small, poorly fitted or top-dose-only effect; inactive = flat fitted curve, though single readings scatter. Peptide text beside a SMILES is read from it.
Permitted responses: T = active, F = inactive

Query: # outcome recorded in this test, key = COC(=O)[C@H]1[C@H]2CC3c4[nH]c5ccccc5c4CCN3C[C@@H]2CC[C@@H]1O (some centres undefined)
Reply: F

Query: # outcome recorded in this test, key = Oc1cc(O)c2c(c1)OC(c1ccc(O)c(O)c1)C(O)C2 (centres undefined)
Reply: F

Query: # outcome recorded in this test, key = `CCCCCCCCCCCCCC[n+]1ccc(C)cc1`
Reply: T

Query: # outcome recorded in this test, key = C[C@@H]1CCC2[C@@H](C)[C@@H](O)O[C@@H]3O[C@@]4(C)CC[C@@H]1[C@@]23OO4 (some centres undefined)
Reply: T

Query: # outcome recorded in this test, key = CC(NNC(=O)c1ccccc1)c1ccccc1 (centres undefined)
Reply: F

Query: # outcome recorded in this test, key = `O=C1C(=O)c2ncccc2-c2cccnc21`
Reply: T

Query: # outcome recorded in this test, key = `CCCCCCOc1ccc(C(=N)N(CCCC)CCCC)c2ccccc12`
Reply: T

Query: # outcome recorded in this test, key = `CC(C)=O`
Reply: F

Query: # outcome recorded in this test, key = `CCOC(=O)C1=C(C)NC(C)=C(C(=O)OCC)C1c1ccccc1C=CC(=O)OC(C)(C)C`
Reply: T

Query: # outcome recorded in this test, key = Nc1c(Br)cc(Br)cc1CNC1CCC(O)CC1 (centres undefined)
Reply: F

Query: # outcome recorded in this test, key = CC(=O)N[C@@H](CC(=O)O)C(=O)N[C@@H](CCC(=O)O)C(=O)O (Ac-Asp-Glu-OH)
Reply: F

Query: # outcome recorded in this test, key = `CCN(CC)Cc1cc(Nc2ccnc3cc(Cl)ccc23)ccc1O`
Reply: T

Query: # outcome recorded in this test, key = `Cc1cn([C@H]2C[C@H](O)[C@@H](CO)O2)c(=O)[nH]c1=O`
Reply: F

Query: # outcome recorded in this test, key = CC1(C)C(C=C(Cl)Cl)C1C(=O)OCc1cccc(Oc2ccccc2)c1 (centres undefined)
Reply: F

Query: # outcome recorded in this test, key = `C[C@]12O[C@H](C[C@]1(O)CO)n1c3ccccc3c3c4c(c5c6ccccc6n2c5c31)CNC4=O`
Reply: T

Query: # outcome recorded in this test, key = `O=C(O)CN(CCN(CC(=O)O)CC(=O)O)CC(=O)O`
Reply: F

Query: # outcome recorded in this test, key = `COC(=O)[C@H]1[C@H]2C[C@@H]3c4[nH]c5ccccc5c4CCN3C[C@H]2C[C@@H](OC(=O)c2cc(OC)c(OC)c(OC)c2)[C@@H]1OC`
Reply: T

Query: # outcome recorded in this test, key = `CCCCC/C=C\C/C=C\CCCCCCCC(=O)O`
Reply: F

Query: # outcome recorded in this test, key = `CCCCCCCCCCCCCCCC(=O)OCC(COC(=O)CCCCCCCCCCCCCCC)OC(=O)CCCCCCCCCCCCCCC`
Reply: F
